# tgt: purified human platelet GP llbllla receptor (Homo sapiens, UniProt P05106+P08514)
# Construct: Platelet GP llbllla was prepared by the method of Fitzgerald, et al; from tissue; host or cells: human platelets
# Sequence (P08514 32-887 limits assumed): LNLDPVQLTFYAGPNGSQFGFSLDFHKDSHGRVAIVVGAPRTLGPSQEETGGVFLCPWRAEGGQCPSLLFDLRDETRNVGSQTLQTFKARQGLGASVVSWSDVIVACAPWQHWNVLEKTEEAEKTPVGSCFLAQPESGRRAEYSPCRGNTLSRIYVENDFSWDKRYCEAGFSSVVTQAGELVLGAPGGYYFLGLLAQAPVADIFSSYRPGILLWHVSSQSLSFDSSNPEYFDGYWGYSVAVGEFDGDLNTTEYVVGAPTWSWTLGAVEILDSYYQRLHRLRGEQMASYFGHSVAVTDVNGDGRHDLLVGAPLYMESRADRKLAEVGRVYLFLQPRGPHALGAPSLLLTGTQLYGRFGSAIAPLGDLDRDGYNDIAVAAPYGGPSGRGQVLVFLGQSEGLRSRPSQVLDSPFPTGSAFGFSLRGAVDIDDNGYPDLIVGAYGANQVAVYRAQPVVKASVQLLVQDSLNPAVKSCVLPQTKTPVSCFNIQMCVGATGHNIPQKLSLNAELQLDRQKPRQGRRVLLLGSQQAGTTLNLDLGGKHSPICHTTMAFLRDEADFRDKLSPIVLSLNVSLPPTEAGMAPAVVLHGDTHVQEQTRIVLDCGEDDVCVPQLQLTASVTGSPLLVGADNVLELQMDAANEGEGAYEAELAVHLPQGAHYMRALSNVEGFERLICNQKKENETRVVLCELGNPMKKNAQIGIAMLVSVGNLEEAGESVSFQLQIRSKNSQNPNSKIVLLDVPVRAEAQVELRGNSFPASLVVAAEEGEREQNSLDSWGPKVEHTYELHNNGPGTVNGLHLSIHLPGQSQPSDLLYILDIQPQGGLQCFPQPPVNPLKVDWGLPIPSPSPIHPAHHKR
# Sequence (P08514 891-1039 partner limits assumed): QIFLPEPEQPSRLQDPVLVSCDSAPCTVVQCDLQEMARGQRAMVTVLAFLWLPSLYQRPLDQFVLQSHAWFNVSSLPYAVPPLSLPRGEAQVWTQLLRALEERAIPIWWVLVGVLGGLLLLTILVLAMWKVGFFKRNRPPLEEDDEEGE
# Sequence (P05106 27-788): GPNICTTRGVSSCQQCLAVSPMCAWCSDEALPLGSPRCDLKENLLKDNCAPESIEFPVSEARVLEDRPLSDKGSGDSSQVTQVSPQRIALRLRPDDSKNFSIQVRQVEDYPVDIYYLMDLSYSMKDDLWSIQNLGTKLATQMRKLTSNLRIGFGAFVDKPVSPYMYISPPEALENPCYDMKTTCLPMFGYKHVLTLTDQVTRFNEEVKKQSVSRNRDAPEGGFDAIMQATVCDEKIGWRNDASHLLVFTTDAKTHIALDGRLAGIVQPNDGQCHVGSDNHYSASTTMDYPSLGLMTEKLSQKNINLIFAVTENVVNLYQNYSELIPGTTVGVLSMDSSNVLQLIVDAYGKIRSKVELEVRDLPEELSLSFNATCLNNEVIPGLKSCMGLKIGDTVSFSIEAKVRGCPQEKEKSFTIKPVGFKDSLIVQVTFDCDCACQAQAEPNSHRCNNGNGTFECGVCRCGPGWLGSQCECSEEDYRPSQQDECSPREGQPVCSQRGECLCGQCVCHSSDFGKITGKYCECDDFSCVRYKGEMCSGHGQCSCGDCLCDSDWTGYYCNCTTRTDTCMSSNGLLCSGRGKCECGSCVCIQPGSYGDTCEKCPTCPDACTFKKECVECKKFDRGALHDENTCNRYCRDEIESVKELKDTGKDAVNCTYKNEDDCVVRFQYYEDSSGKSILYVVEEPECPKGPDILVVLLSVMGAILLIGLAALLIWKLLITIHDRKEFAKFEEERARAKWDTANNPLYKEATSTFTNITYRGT
# protocol: biochemical
# Type: binding
# experimental_conditions: GP IIbIIIa receptor assay for inhibition of fibrinogen binding; smaller ratio = more active
Positions of bridges follow the written chain, without caps; N, C: chain ends. Non-standard residues stand in square brackets, D forms with d. Residues, ends and D or L forms follow the SMILES beside them.
parameter: Ratio of IC50 of test compound to IC50 of Gly-Arg-Gly-Asp-Val
// return just the number, without any unit appended

Here are 3 compounds together with their reported answers.
{"compound": "C[C@H]1NC(=O)CSC[C@@H](C(=O)O)NC(=O)[C@H](CC(=O)O)NC(=O)CNC(=O)[C@H](CCCNC(=N)N)NC1=O [Ex. 9] ({CH2CO}-[dA]RGDC-OH; thioether N-5)", "tgt": "purified human platelet GP llbllla receptor (Homo sapiens, UniProt P05106+P08514)", "experimental_value": 0.13}
{"compound": "C[C@H](O)[C@H]1NC(=O)CSC[C@@H](C(=O)O)NC(=O)[C@H](CC(=O)O)NC(=O)CNC(=O)[C@H](CCCNC(=N)N)NC1=O [Ex. 7] ({CH2CO}-[dT]RGDC-OH; thioether N-5)", "tgt": "purified human platelet GP llbllla receptor (Homo sapiens, UniProt P05106+P08514)", "experimental_value": 0.07}
{"compound": "N=C(N)NCCC[C@@H]1NC(=O)[C@H]2CCCN2C(=O)CSC[C@@H](C(=O)O)NC(=O)[C@H](CC(=O)O)NC(=O)CNC1=O [Ex. 13] ({CH2CO}-[dP]RGDC-OH; thioether N-5)", "tgt": "purified human platelet GP llbllla receptor (Homo sapiens, UniProt P05106+P08514)", "experimental_value": 0.05}

Now for the compound whose Ratio of IC50 of test compound to IC50 of Gly-Arg-Gly-Asp-Val we want.
Asked: What does the data say about its Ratio of IC50 of test compound to IC50 of Gly-Arg-Gly-Asp-Val? Entry: N=C(N)NCCC[C@@H]1NC(=O)CNC(=O)CSC[C@@H](C(=O)O)NC(=O)[C@H](CC(=O)O)NC(=O)CNC1=O [Ex. 2, cyclo-S-acetyl-Gly-Arg-Gly-Asp-Cys-OH] ({CH2CO}-GRGDC-OH; thioether N-5)
Given back: 0.14

# credit: patent US5384309A
